Where these numbers come from: patent US6821980B1

test_system: purified DHFR of strain 157/4696 of Staphylococcus aureus (Staphylococcus aureus, UniProt P13955)
Sequence (P13955 whole entry): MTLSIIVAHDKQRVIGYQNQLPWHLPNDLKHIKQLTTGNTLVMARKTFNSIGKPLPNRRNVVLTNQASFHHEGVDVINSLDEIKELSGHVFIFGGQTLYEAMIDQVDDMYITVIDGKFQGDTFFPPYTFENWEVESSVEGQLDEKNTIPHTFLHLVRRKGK
test_method_notes: biochemical
run_conditions: Table 1; IC50 against purified DHFR of strain 157/4696 (highly trimethoprim-resistant; clinical isolate); read-out: DHFR Sa1
measured_parameter: pIC50
Answers are plain numbers, as −log10 of the molar value.

Which pIC50 is listed for CCOc1cc(Cc2cnc(N)nc2N)cc(OCC2CC2)c1-c1cccc(N)c1 [Example 7a] ? 6.29

###

test_system: purified DHFR of strain 157/4696 of Staphylococcus aureus (Staphylococcus aureus)
test_method_notes: biochemical
IC50 less than 200 nM is 1 (yes); IC50 greater than or equal to 200 nM is 0 (no).

These solved cases illustrate the format of a correct answer.
- CCOc1cc(Cc2cnc(N)nc2N)cc(OS(=O)(=O)C(C)CC)c1-c1ccc(NCCO)cc1 (centres unmarked) [Example 35-f]: 1 (yes)
- CCOc1cc(Cc2cnc(N)nc2N)cc(OS(=O)(=O)N(C)C2CC2)c1-c1cc(N)cc(F)c1 [Example 29-a]: 0 (no)
- CCOc1cc(Cc2cnc(N)nc2N)cc(OC2CCC(CC#N)C2)c1-c1ccc(O)cc1 (centres unmarked) [Example 08-w]: 0 (no)
- CCOc1cc(Cc2cnc(N)nc2N)cc(OS(=O)(=O)N(C)CC)c1-c1cc(N)cc(F)c1 [Example 29-c]: 1 (yes)
- CCOc1cc(Cc2cnc(N)nc2N)cc(OS(=O)(=O)C(C)CC)c1-c1ccc(CN2CCOCC2)c(N)c1 (centres unmarked) [Example 35-c]: 1 (yes)

Consider CCOc1cc(Cc2cnc(N)nc2N)cc(OCC)c1-c1ccc(N(C)C)cc1 [Example 02-v] . Does its IC50 lie strictly below 200 nM? 0 (no)

Consider CCOc1cc(Cc2cnc(N)nc2N)cc(OCC)c1-c1ccc(COCC(=O)N2CCSCC2)s1 [Example 03-b] . Does its IC50 lie strictly below 200 nM? 0 (no)

###

Tested on: Streptococcus pneumoniae 1/1
test_method_notes: MIC against Streptococcus pneumoniae 1/1
Assay type: cell-based
run_conditions: Table 2; Streptococcus pneumoniae 1/1, trimethoprim- and penicillin-resistant, serotype 6; clinical isolate; read-out: MIC Sp1/1
measured_parameter: MIC (µg/mL)
Numbers only, in µg/mL.

* CCOc1cc(Cc2cnc(N)nc2N)cc(OS(=O)(=O)N(CC)CC)c1-c1ccc(N)cc1 | 1
* CCOc1cc(Cc2cnc(N)nc2N)cc(OCC)c1-c1ccc(C#N)cc1 | 4
* CCOc1cc(Cc2cnc(N)nc2N)cc(OS(=O)(=O)CC(C)C)c1-c1ccc(NCCO)cc1 | 0.5

Request body: readout MIC, system Streptococcus pneumoniae 1/1, query CCOc1cc(Cc2cnc(N)nc2N)cc(OS(=O)(=O)N2CCCC2)c1-c1ccc(NC)cc1 . Return the value. 1

###

Please go through the items and note down their MIC.
Test system: Staphylococcus aureus 101
test_method_notes: MIC against Staphylococcus aureus 101
Type: cell-based
run_conditions: Table 2; Staphylococcus aureus 101, MRSA- and trimethoprim-resistant; clinical isolate; read-out: MIC Sa101
Give bare numbers, in µg/mL.

Give one value of MIC per listed compound.
1. CCOc1cc(Cc2cnc(N)nc2N)cc(OS(=O)(=O)CC2CCCO2)c1-c1ccc(N)c(C)c1 (stereo not shown) [Example 42-c]
2. CCOc1cc(Cc2cnc(N)nc2N)cc(OS(=O)(=O)C2CC2)c1-c1ccc(C)c(N)c1 [Example 34-f]

[8, 2]

Give one value of MIC per listed compound.
1. CCOc1cc(Cc2cnc(N)nc2N)cc(OCC)c1-c1ccc(OC)cc1 [Example 05-b]
2. CCOc1cc(Cc2cnc(N)nc2N)cc(OS(=O)(=O)N(C)C)c1-c1ccc(O)cc1 [Example 20-a]
3. CCOc1cc(Cc2cnc(N)nc2N)cc(OS(=O)(=O)C(C)CC)c1-c1ccc(N)c(F)c1 (stereo not shown) [Example 35-b]
4. CCOc1cc(Cc2cnc(N)nc2N)cc(OC(C)C)c1-c1ccc(O)cc1 [Example 08-m]
5. CCOc1cc(Cc2cnc(N)nc2N)cc(OS(=O)(=O)C(C)C)c1-c1ccc(OC(C)=O)cc1 [Example 58-]
6. CCOc1cc(Cc2cnc(N)nc2N)cc(OS(=O)(=O)C(C)CC)c1-c1ccc(O)cc1 (stereo not shown) [Example 15-g]

16
2
2
8
2
2

Give one value of MIC per listed compound.
1. CCOc1cc(Cc2cnc(N)nc2N)cc(OS(=O)(=O)N(CC)CC)c1-c1cccc(N)c1 [Example 19-h]
2. CCOc1cc(Cc2cnc(N)nc2N)cc(OCC)c1-c1ccc(C=O)cc1 [Example 02-ag]
3. CCOc1cc(Cc2cnc(N)nc2N)cc(OS(=O)(=O)N(C)C)c1-c1ccc(SC)cc1 [Example 43-a]

2
8
2

Give one value of MIC per listed compound.
1. CCOc1cc(Cc2cnc(N)nc2N)cc(OS(=O)(=O)CC(C)C)c1-c1cccc(N)c1 [Example 14-h]
2. CCOc1cc(Cc2cnc(N)nc2N)cc(OS(=O)(=O)N(C)CC)c1-c1ccc(N)cc1 [Example 22-b]
3. CCOc1cc(Cc2cnc(N)nc2N)cc(OCC)c1-c1ccc2c(c1)OCCO2 [Example 02-x]
4. CCOc1cc(Cc2cnc(N)nc2N)cc(OCC(F)(F)F)c1-c1ccc(O)cc1 [Example 08-s]
5. CCOc1cc(Cc2cnc(N)nc2N)cc(OS(=O)(=O)C(C)C)c1-c1ccc(OC)cc1 [Example 16-c]

2
1
8
4
2

###

Please go through the items and note down their IC50.
test_system: purified DHFR of strain Sp1/1 of Streptococcus pneumoniae (Streptococcus pneumoniae serotype 4)
Assay type: biochemical
run_conditions: Table 2; IC50 against purified DHFR of strain Sp1/1
One number for each entry, in nM.

- CCOc1cc(Cc2cnc(N)nc2N)cc(OS(=O)(=O)N(CC)CC)c1-c1ccc(NC)cc1: 8.8
- CCOc1cc(Cc2cnc(N)nc2N)cc(OS(=O)(=O)N(C)C2CC2)c1-c1ccc(N)c(C)c1: 2.6
- CCOc1cc(Cc2cnc(N)nc2N)cc(OCC2CC2)c1-c1ccc(OC)c(N)c1: 14

Proceed to the following item.
Which IC50 is listed for CCOc1cc(Cc2cnc(N)nc2N)cc(OS(=O)(=O)N(C)C)c1-c1ccccc1 ? 9.8

###

Please go through the items and note down their MIC Sa101.
System: Staphylococcus aureus 101
test_method_notes: MIC against Staphylococcus aureus 101
Type: cell-based
run_conditions: Table 2; Staphylococcus aureus 101, MRSA- and trimethoprim-resistant; clinical isolate
Answers are plain numbers, in µg/mL.

Worked cases, MIC Sa101 given:
• CCOc1cc(Cc2cnc(N)nc2N)cc(OCC)c1-c1ccc(NC(C)=O)cc1 = 8
• CCCS(=O)(=O)Oc1cc(Cc2cnc(N)nc2N)cc(OCC)c1-c1ccc(N)c(C)c1 = 4
• CCCS(=O)(=O)Oc1cc(Cc2cnc(N)nc2N)cc(OCC)c1-c1ccc(F)c(N)c1 = 4

Give one value of MIC Sa101 per listed compound.
1. CCOc1cc(Cc2cnc(N)nc2N)cc(OS(=O)(=O)CC2CC2)c1-c1ccc(N)c(F)c1
2. CCOc1cc(Cc2cnc(N)nc2N)cc(OS(=O)(=O)CC2CC2)c1-c1ccc(CN2CCOCC2)c(N)c1
3. COc1cc(Cc2cnc(N)nc2N)cc(OC)c1OC [Trimethoprim, reference compound]
4. CCCS(=O)(=O)Oc1cc(Cc2cnc(N)nc2N)cc(OCC)c1-c1ccc(N)c(F)c1
5. CCOc1cc(Cc2cnc(N)nc2N)cc(OCC2(CCC#N)CC2)c1-c1ccc(O)cc1

2
4
32
4
8

###

test_system: purified DHFR of strain Sp1/1 of Streptococcus pneumoniae (Streptococcus pneumoniae serotype 4, UniProt Q54801)
Sequence (Q54801 whole entry I100L, form open): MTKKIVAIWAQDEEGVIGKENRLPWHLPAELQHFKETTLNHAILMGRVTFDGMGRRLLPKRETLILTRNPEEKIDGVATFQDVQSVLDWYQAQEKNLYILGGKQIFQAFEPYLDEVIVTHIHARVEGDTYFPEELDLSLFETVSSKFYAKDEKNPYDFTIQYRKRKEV
Format: biochemical
run_conditions: Table 2; IC50 against purified DHFR of strain Sp1/1
measured_parameter: pIC50
Numbers only, as −log10 of the molar value.

Give one value of pIC50 per listed compound.
1. CCOc1cc(Cc2cnc(N)nc2N)cc(OCC)c1-c1ccc(F)c(N)c1
2. CCOc1cc(Cc2cnc(N)nc2N)cc(OCC)c1-c1cnc(CN2CCOCC2)nc1
3. CCOc1cc(Cc2cnc(N)nc2N)cc(OCC)c1-c1ccc(CN2CCCC2)c(F)c1
4. CCOc1cc(Cc2cnc(N)nc2N)cc(OCC)c1-c1ccc2c(c1)OCO2
5. CCOc1cc(Cc2cnc(N)nc2N)cc(OS(=O)(=O)N(C)C)c1-c1cccc(N)c1
6. CCOc1cc(Cc2cnc(N)nc2N)cc(OCC)c1-c1cccs1
7. CCOc1cc(Cc2cnc(N)nc2N)cc(OS(=O)(=O)CC2CC2)c1-c1ccc(N)c(C)c1
8. CCCS(=O)(=O)Oc1cc(Cc2cnc(N)nc2N)cc(OCC)c1-c1cccc(N)c1

1. 7.17
2. 7.10
3. 6.48
4. 7.15
5. 8.21
6. 7.24
7. 8.24
8. 7.80
